assayed_target: KCNH2-3.1 (Kv11.1-3.1 containing potassium channel; hERG 3.1) (Homo sapiens, UniProt Q12809)
Construct: expressed in transfected cells; host or cells: U2OS cells transduced with hERG 3.1 BacMam virus
Sequence (Q12809 1-1063 isoform Q12809-7): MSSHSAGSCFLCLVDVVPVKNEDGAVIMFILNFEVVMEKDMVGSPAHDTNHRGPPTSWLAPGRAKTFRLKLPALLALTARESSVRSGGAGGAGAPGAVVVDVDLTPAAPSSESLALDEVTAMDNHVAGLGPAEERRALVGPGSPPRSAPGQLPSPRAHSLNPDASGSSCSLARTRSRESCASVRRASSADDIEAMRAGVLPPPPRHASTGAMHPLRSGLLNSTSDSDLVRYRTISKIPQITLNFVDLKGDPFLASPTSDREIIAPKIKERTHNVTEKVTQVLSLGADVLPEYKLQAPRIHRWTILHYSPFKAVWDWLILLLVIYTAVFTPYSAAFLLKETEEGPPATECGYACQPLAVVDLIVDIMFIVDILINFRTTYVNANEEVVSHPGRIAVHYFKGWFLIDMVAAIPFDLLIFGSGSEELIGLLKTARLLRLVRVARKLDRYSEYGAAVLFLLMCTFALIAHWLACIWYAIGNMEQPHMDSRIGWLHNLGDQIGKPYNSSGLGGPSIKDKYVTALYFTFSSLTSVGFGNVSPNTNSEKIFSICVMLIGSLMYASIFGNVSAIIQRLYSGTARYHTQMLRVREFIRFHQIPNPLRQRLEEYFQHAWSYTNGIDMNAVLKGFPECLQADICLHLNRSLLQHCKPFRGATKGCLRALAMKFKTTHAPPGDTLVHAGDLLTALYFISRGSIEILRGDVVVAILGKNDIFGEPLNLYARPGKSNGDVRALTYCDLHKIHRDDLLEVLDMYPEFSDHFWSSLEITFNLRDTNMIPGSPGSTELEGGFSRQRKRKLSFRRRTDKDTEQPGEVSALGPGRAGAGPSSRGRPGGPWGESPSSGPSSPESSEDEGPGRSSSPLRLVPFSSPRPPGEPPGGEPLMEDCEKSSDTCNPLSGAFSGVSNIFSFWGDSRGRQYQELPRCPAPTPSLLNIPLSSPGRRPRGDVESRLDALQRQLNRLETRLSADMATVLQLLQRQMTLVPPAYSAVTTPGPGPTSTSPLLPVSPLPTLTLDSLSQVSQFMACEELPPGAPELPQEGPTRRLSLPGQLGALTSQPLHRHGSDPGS
test_summary: KCNH2-3.1 inhibition ion (thallium) flux assay, FluxOR
Assay type: cell-based
experimental_context: U2OS cells transduced with hERG 3.1 Bacmam virus, 5 minutes compound incubation, read-out: Activity range (IC50)
pIC50: −log10 of the molar value.
# pIC50 per entry
endpoint_name: pIC50

molecule=O=C(CN1CCCCC1)Nc1ccc(N2CCCCCC2)c(F)c1 measured_value="> 6.30"
molecule="O=C(CN1CCC(c2ccc(F)cc2)C1)Nc1ccc(N2CCCCCC2)cc1 (stereo not shown)" measured_value="5.70 to 6.30"
molecule="O=C(CN1CCCCC1CO)Nc1ccc(N2CCCCCC2)cc1 (stereo not shown)" measured_value="5.00 to 5.70"
molecule=O=C(CNC1CCCCCC1)Nc1ccc(N2CCCCCC2)nc1 measured_value="5.70 to 6.30"
molecule=O=C(CNCc1ccccc1)Nc1ccc(N2CCCCCC2)nc1 measured_value="5.00 to 5.70"
molecule=O=C(CN1CCCCC1)Nc1cnc(N2CCCCCC2)nc1 measured_value="5.70 to 6.30"
molecule=O=C(CN1CCCCC1)Nc1ccc(N2CCCCCC2)cc1F measured_value="5.00 to 5.70"
molecule=O=C(CN1CC2CCC(C2)C1)Nc1ccc(N2CCCCCC2)nc1 measured_value="> 6.30"
molecule=O=C(CN1CCC(O)(c2ccc(Cl)cc2)CC1)Nc1ccc(N2CCCCCC2)cc1 measured_value="> 6.30"
molecule=O=C(CN1CCCCC1)Nc1ccc(N2CCCCCC2)cn1 measured_value="5.00 to 5.70"
